Hey, just so you know, these numbers are from ChEMBL document CHEMBL1133983.

Reported Selectivity values follow for various compounds
EXPERIMENT_NOTES: Ratio of Inhibitory activity against glutathione reductase and inhibitory activity against trypanothione reductase was determined
RECORDED_ENDPOINT: Selectivity

# COMPOUND, BOUND_OPERATOR, MEASURED
data = [
    ("COc1ccc2nc3cc(Cl)ccc3c(NCCCCNS(=O)(=O)c3ccc4ccccc4c3)c2c1", "=", 2.8),
    ("COc1ccc2nc3cc(Cl)ccc3c(NCCCNS(=O)(=O)c3ccc4ccccc4c3)c2c1", "=", 8.2),
    ("COc1ccc2nc3cc(Cl)ccc3c(NCCNC(=O)NCc3ccccc3)c2c1", "=", 1.4),
    ("CCN(CC)CCCC(C)Nc1c2ccc(Cl)cc2nc2ccc(OC)cc12 (stereo not drawn)", ">", 7.5),
    ("COc1ccc2nc3cc(Cl)ccc3c(NCCCCNC(=O)NCc3ccccc3)c2c1", "=", 3.6),
    ("COc1ccc2nc3cc(Cl)ccc3c(NCCCNC(=O)NCc3ccccc3)c2c1", "=", 3.4),
    ("COc1ccc2nc3cc(Cl)ccc3c(NCCNS(=O)(=O)c3ccc4ccccc4c3)c2c1", "=", 1.7),
    ("COc1ccc2nc3cc(Cl)ccc3c(NCCCCCCNC(=O)NCc3ccccc3)c2c1", "=", 1.5),
]

###

TGT: Glutathione reductase, mitochondrial (Homo sapiens, UniProt P00390)
Sequence (P00390 whole entry): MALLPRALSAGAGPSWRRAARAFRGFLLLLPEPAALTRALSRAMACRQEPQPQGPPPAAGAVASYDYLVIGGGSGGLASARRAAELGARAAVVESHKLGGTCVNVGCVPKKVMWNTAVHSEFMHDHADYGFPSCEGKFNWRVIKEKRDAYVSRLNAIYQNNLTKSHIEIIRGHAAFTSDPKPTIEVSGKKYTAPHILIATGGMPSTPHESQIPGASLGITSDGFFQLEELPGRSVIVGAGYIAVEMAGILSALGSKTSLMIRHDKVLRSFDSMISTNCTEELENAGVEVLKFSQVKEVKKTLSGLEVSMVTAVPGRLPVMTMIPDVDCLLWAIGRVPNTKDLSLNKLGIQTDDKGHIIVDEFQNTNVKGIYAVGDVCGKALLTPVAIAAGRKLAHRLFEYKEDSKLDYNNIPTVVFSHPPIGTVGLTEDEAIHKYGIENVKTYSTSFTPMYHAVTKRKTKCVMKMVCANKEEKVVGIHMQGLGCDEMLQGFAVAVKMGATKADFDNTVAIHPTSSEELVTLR
pIC50: −log10 of the molar value.
RECORDED_ENDPOINT: pIC50

# MOLECULE, BOUND_OPERATOR, MEASURED
data = [
    ("COc1ccc2nc3cc(Cl)ccc3c(NCCNS(=O)(=O)c3ccc4ccccc4c3)c2c1", "=", 5.00),
    ("COc1ccc2nc3cc(Cl)ccc3c(NCCCCNS(=O)(=O)c3ccc4ccccc4c3)c2c1", "=", 4.86),
    ("CCN(CC)CCCC(C)Nc1c2ccc(Cl)cc2nc2ccc(OC)cc12 (stereo not drawn)", "<", 3.00),
    ("COc1ccc2nc3cc(Cl)ccc3c(NCCCCCCNC(=O)NCc3ccccc3)c2c1", "=", 4.77),
    ("COc1ccc2nc3cc(Cl)ccc3c(NCCNC(=O)NCc3ccccc3)c2c1", "=", 4.57),
    ("COc1ccc2nc3cc(Cl)ccc3c(NCCCNS(=O)(=O)c3ccc4ccccc4c3)c2c1", "=", 4.57),
    ("COc1ccc2nc3cc(Cl)ccc3c(NCCCCNC(=O)NCc3ccccc3)c2c1", "=", 4.25),
    ("COc1ccc2nc3cc(Cl)ccc3c(NCCCNC(=O)NCc3ccccc3)c2c1", "=", 4.35),
]
